# Lookup of reported minimal effective concentration keyed by entry
# Tested on: Aspergillus fumigatus
# test: Antifungal activity against Aspergillus fumigatus H237 expressing rasA gene assessed as abnormal hyphal growth by CLSI method
# Format: functional
# test_parameters: read-out: MEC
*1 amine or outer side, *2 acyl side, *3 side chain or, on linkers, in order; H or OH if unused. Where a SMILES comes first, the peptide text is derived from it. Bridges are numbered along the chain shown (N, C = ends). [ ]: non-standard residue; d: D form. The star is where a group is joined. hTyr(3S-OH,4S-OH,3'-OSO3H) = N[C@H](C(=O)O)[C@H](O)[C@@H](O)c1ccc(O)c(OS(=O)(=O)O)c1; pTerphenylCO(4''-OnC5H11) = CCCCCOc1ccc(-c2ccc(-c3ccc(C(=O)*)cc3)cc2)cc1; Orn(4R-OH,5R-OH) = O=C([C@H](C[C@@H](O)[C@@H](O)N[*:3])N[*:1])[*:2]; hTyr(3S-OH,4S-OH) = N[C@H](C(=O)O)[C@H](O)[C@@H](O)c1ccc(O)cc1; Pro(3S-OH,4S-Me) = C[C@H]1CN[C@H](C(=O)O)[C@H]1O; X1 = CCCCCOc1ccc(-c2cc(-c3ccc(C(=O)*)cc3)no2)cc1; Gln(3R-OH) = NC(=O)C[C@@H](O)[C@H](N)C(=O)O; Hyp = O=C(O)[C@@H]1C[C@@H](O)CN1
Give a bare numeral; the unit µg/mL is implied.

// worked examples, minimal effective concentration included
[[record]]
compound = "C=CC[C@@H]1/C=C(\\C)C[C@H](C)C[C@H](OC)[C@H]2O[C@@](O)(C(=O)C(=O)N3CCCC[C@H]3C(=O)O[C@H](/C(C)=C/[C@@H]3CC[C@@H](O)[C@H](OC)C3)[C@H](C)[C@@H](O)CC1=O)[C@H](C)C[C@@H]2OC [TACROLIMUS ANHYDROUS]"
number = 0.02

[[record]]
compound = "CCCCCOc1ccc(-c2ccc(-c3ccc(C(=O)N[C@H]4C[C@@H](O)[C@@H](O)NC(=O)[C@@H]5[C@@H](O)[C@@H](C)CN5C(=O)[C@H]([C@@H](C)O)NC(=O)[C@H]([C@H](O)[C@@H](O)c5ccc(O)cc5)NC(=O)[C@@H]5C[C@@H](O)CN5C(=O)[C@H]([C@@H](C)O)NC4=O)cc3)cc2)cc1 [ANIDULAFUNGIN] ({pTerphenylCO(4''-OnC5H11)}-[Orn(4R-OH,5R-OH)]T[Hyp][hTyr(3S-OH,4S-OH)]T[Pro(3S-OH,4S-Me)]; lactam 1-C)"
number = 0.125

[[record]]
compound = "C[C@@H]([C@H](N)C(=O)N[C@H](C(=O)O)[C@H]1O[C@@H](n2ccc(=O)[nH]c2=O)[C@H](O)[C@@H]1O)[C@H](O)c1ccc(O)cn1"
number = 2


Proceeding to the next compound to report its minimal effective concentration.
# input minimal effective concentration for CCCCCOc1ccc(-c2cc(-c3ccc(C(=O)N[C@H]4C[C@@H](O)[C@@H](O)NC(=O)[C@@H]5[C@@H](O)[C@@H](C)CN5C(=O)[C@H]([C@H](O)CC(N)=O)NC(=O)[C@H]([C@H](O)[C@@H](O)c5ccc(O)c(OS(=O)(=O)O)c5)NC(=O)[C@@H]5C[C@@H](O)CN5C(=O)[C@H]([C@@H](C)O)NC4=O)cc3)no2)cc1 [MICAFUNGIN] (X1-[Orn(4R-OH,5R-OH)]T[Hyp][hTyr(3S-OH,4S-OH,3'-OSO3H)][Gln(3R-OH)][Pro(3S-OH,4S-Me)]; lactam 1-C) ?
# output 0.125
